molecular target: T1, Taq DNA polymerase (Thermus aquaticus, UniProt P19821 1-832); experiment: AMC sensor, antibody immobilised
T1 construct: also called Taq enzyme; Taq DNA enzyme
T1 sequence (P19821 whole entry): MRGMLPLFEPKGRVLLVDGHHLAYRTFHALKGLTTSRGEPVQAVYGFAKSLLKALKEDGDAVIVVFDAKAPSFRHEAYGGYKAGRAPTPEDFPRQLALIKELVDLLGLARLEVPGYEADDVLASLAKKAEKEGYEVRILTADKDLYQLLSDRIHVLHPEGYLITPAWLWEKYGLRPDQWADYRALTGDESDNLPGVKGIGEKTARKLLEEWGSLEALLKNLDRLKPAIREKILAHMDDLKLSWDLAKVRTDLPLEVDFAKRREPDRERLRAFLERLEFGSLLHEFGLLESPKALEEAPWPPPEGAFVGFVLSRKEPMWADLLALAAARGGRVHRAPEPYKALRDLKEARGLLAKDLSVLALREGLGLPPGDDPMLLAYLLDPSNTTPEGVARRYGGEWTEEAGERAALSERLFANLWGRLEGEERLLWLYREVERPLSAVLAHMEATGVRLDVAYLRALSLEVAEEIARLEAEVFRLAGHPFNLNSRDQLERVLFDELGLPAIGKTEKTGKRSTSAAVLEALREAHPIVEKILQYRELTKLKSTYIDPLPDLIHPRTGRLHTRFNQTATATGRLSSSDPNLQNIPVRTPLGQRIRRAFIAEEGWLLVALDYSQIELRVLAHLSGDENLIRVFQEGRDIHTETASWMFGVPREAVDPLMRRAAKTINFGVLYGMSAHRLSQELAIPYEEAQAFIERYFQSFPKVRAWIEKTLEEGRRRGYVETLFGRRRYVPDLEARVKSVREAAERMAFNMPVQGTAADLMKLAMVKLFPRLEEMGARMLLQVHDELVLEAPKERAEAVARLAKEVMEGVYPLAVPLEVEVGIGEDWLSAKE
# reported kon; entries follow
EXPERIMENTAL_ENDPOINT: kon (M⁻¹ s⁻¹)

1) WT 1-5 (antibody, V domains shown, WT background; CDRs built) VH: QVQLQQPGAELVKPGASVRLSCQTSVNTFTTYYLYWVKQRPGEGLEWIGGLNPTSGGPVFDEKFKSKATLTVDTSSSTAYMQLSSLTSVDSAVYYCTRSVIRRGYYPDYWGQGTALTVSS VL: DIQMTQTTSSLSASLGDRVTISCRGSQDINNYINWYQQKPDGTIKLLIYFTSRLHSGLPSRFSGSGSGTDYSLTIANLEQEDIATYFCQQDDTVPLTWGAGTKVELKR : 61200
2) WT 1-6 (antibody, V domains shown, WT background; CDRs built) VH: QVQLQQPGAELVKPGASVRLSCQTSVDTFSTYYLYWVKQRPGEGLEWIGGVNPTSNPVFDEKFKSKATLTVDTSSSTAYMQLSSLTSVDSAVYYCTRSLLRRGYYPDYWGQGTALTVSS VL: DIQMTQTTSSLSASLGDRVTISCRGSQDIQNYVNWYQQKPDGTIKLLIYFTSRLNSGIPSRFSGSGSGTDYSLTIANLEQEDIATYFCQQDDTLPVTWGAGTKVELKR : 76100
3) WT 1-2 (antibody, V domains shown, WT background; CDRs built) VH: QVQLQQPGAELVKPGASVRLSCQTSVETFSTYYLYWVKQRPGEGLEWIGGLNPTSNPVFDEKFKSKATLTVDTSSSTAYMQLSSLTSVDSAVYYCTRSIIRRGYYPDYWGQGTALTVSS VL: DIQMTQTTSSLSASLGDRVTISCRGSQDIQNYLNWYQQKPDGTIKLLIYFTSRLQSGLPSRFSGSGSGTDYSLTIANLEQEDIATYFCQQDDTIPLTWGAGTKVELKR : 48500
4) WT 1-1 (antibody, V domains shown, WT background; CDRs built) VH: QVQLQQPGAELVKPGASVRLSCQTSVDTFTTYYLYWVKQRPGEGLEWIGGINPTSNPVFDEKFKSKATLTVDTSSSTAYMQLSSLTSVDSAVYYCTRSIVRRGYYPDYWGQGTALTVSS VL: DIQMTQTTSSLSASLGDRVTISCRGSQDINNYVNWYQQKPDGTIKLLIYFTSRLQSGVPSRFSGSGSGTDYSLTIANLEQEDIATYFCQQDDTIPITWGAGTKVELKR : 58800
5) WT 1-3 (antibody, V domains shown, WT background; CDRs built) VH: QVQLQQPGAELVKPGASVRLSCQTSVETFTTYYLYWVKQRPGEGLEWIGGVNPTSGGPVFDEKFKSKATLTVDTSSSTAYMQLSSLTSVDSAVYYCTRSVLRRGYYPDYWGQGTALTVSS VL: DIQMTQTTSSLSASLGDRVTISCRGSQDINNYLNWYQQKPDGTIKLLIYFTSRLHSGIPSRFSGSGSGTDYSLTIANLEQEDIATYFCQQDDTVPVTWGAGTKVELKR : 48000
